target: T1, FX activation peptide 12-mer DLDPTENPFDLL (human); assay: peptide ELISA
T1 peptide: DLDPTENPFDLL-biotin
Ends that are not written are not given here.
# ELISA signal relative to background per record follows

Here is how some binders turned out for ELISA signal relative to background.
binder="Nb 701D07 (VHH, monovalent Nanobody; not shown: C-terminal FLAG3 and HIS6 tag) VHH: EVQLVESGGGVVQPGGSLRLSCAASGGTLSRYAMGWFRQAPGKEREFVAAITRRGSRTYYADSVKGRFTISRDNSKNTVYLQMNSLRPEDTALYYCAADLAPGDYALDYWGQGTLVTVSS" endpoint_label="ELISA signal relative to background" result=0.74
binder="Nb 730C03 (VHH, monovalent Nanobody; also called Nb 730003; not shown: C-terminal FLAG3 and HIS6 tag) VHH: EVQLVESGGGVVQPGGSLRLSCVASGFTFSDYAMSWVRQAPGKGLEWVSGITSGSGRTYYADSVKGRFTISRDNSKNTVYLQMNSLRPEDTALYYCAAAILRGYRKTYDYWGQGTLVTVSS" endpoint_label="ELISA signal relative to background" result=1.26
binder="Nb 701B09 (VHH, monovalent Nanobody; also called Nb 701609; not shown: C-terminal FLAG3 and HIS6 tag) VHH: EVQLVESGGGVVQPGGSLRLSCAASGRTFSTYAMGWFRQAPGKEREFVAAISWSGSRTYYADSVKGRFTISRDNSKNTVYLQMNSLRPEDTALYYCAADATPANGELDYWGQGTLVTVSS" endpoint_label="ELISA signal relative to background" result=0.82
binder="Nb 729A04 (VHH, monovalent Nanobody; not shown: C-terminal FLAG3 and HIS6 tag) VHH: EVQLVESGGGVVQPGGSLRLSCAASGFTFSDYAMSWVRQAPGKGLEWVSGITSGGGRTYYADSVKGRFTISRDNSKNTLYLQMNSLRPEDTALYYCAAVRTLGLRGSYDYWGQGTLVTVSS" endpoint_label="ELISA signal relative to background" result=1.06
binder="Nb 701C06 (VHH, monovalent Nanobody; not shown: C-terminal FLAG3 and HIS6 tag) VHH: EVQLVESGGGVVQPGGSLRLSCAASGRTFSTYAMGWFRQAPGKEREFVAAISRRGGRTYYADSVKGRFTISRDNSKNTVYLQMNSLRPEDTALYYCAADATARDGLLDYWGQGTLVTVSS" endpoint_label="ELISA signal relative to background" result=0.88

Switching to the query record.
Challenge: For the binder Nb 729C08 (VHH, monovalent Nanobody; also called Nb 729008; not shown: C-terminal FLAG3 and HIS6 tag) VHH: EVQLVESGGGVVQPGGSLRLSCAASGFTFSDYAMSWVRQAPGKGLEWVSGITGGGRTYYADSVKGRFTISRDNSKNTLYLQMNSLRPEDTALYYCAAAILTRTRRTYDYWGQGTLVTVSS , what ELISA signal relative to background is on record?
Response given: 1.21

Cited source: patent US20210054097A1
